- TARGET ENTITY: HLA-DR4 (human)
- TEST METHOD NOTES: competition ELISA, tracer HA 306-318
pIC50: −log10 of the molar value.

{"BINDER": "ASSYAAAQRKLLTPV (modifications not checked) [A15V]", "pIC50": 4.45}
